What CC50 at 72 h was measured for each of the following?
experiment: Cytotoxicity against human C8166 cells after 3 days by MTT assay; format: cell-based
Answers are plain numbers, in µg/mL.

Check out these entries, answers already filled in.
[[record]]
mol_smiles = "CC(=O)c1cn(S(=O)(=O)c2ccc(Br)cc2)c2ccc([N+](=O)[O-])cc12"
value_kind = "CC50 at 72 h"
result_value = 70.4

[[record]]
mol_smiles = "CC(=O)c1cn(S(=O)(=O)c2cccc([N+](=O)[O-])c2)c2ccccc12"
value_kind = "CC50 at 72 h"
result_value = 164

[[record]]
mol_smiles = "Cc1cn([C@H]2C[C@H](N=[N+]=[N-])[C@@H](CO)O2)c(=O)[nH]c1=O"
value_kind = "CC50 at 72 h"
result_value = 1140

[[record]]
mol_smiles = "CC(=O)c1cn(S(=O)(=O)c2ccc(Cl)c([N+](=O)[O-])c2)c2ccccc12"
value_kind = "CC50 at 72 h"
result_value = 3.21

[[record]]
mol_smiles = "CC(=O)c1cn(S(=O)(=O)c2ccc(Cl)cc2)c2ccc(C#N)cc12"
value_kind = "CC50 at 72 h"
result_value = 65.2

[[record]]
mol_smiles = "CC(=O)c1cn(S(=O)(=O)c2cccc([N+](=O)[O-])c2)c2cc(C)ccc12"
value_kind = "CC50 at 72 h"
result_value = 125


Now turn to the next compound.
Req: For the compound shown here, CC(=O)c1cn(S(=O)(=O)c2ccccc2)c2ccc(C#N)cc12 , give the reported CC50 at 72 h.
Resp: 66.2

FYI, the data here is from ChEMBL document CHEMBL1158612.
